Test system: Pseudomonas aeruginosa PA14 wild type
test_summary: respiration area under curve with compound as sole nitrogen source, 24 h (OmniLog AUC (arbitrary units)); higher = more respiration / better utilisation as nitrogen source, active = 2000 or more
quantity_kind: respiration area under curve
One number for each entry.

Previously resolved entries follow.
molecule	respiration area under curve
N[C@@H](CCC(=O)O)C(=O)N[C@@H](CC(=O)O)C(=O)O (plate: PM6)	12
N[C@@H](Cc1ccccc1)C(=O)N[C@@H](Cc1c[nH]c2ccccc12)C(=O)O (plate: PM7)	524
N[C@@H](CCC(=O)O)C(=O)N[C@@H](Cc1ccc(O)cc1)C(=O)O (plate: PM6)	1140

// batch mode: one respiration area under curve value per listed entry
1. C[C@H](N)C(=O)N[C@@H](CO)C(=O)O (plate: PM6)
2. CC(C)C[C@H](N)C(=O)N1CCC[C@H]1C(=O)O (plate: PM8)
3. CC(C)[C@H](N)C(=O)N[C@@H](CCC(=O)O)C(=O)O (plate: PM8)
4. CSCC[C@H](N)C(=O)N[C@@H](CCC(=O)O)C(=O)O (plate: PM7)
5. C[C@H](N)C(=O)N[C@@H](Cc1c[nH]c2ccccc12)C(=O)O (plate: PM6)
6. CC[C@H](C)[C@H](NC(=O)CN)C(=O)O (plate: PM8)

1. 9550
2. 9370
3. 5380
4. 1960
5. 4490
6. 7100

* * *

System: Pseudomonas aeruginosa PA14 wild type
test_summary: respiration area under curve with compound as sole nitrogen source, 24 h (OmniLog AUC (arbitrary units)); higher = more respiration / better utilisation as nitrogen source, active = 2000 or more
Think of 9000 as a floor: if respiration area under curve stands on it or above, it is true (1); beneath it, false (0).

Solved entries (count: 4):
molecule	classification
N[C@@H](Cc1ccc(O)cc1)C(=O)N[C@@H](CCC(=O)O)C(=O)O (plate: PM7)	false (0)
CC(C)C[C@H](N)C(=O)N[C@H](CC(C)C)C(=O)O (plate: PM8)	false (0)
N[C@@H](CC(=O)O)C(=O)N[C@@H](CC(=O)O)C(=O)O (plate: PM6)	false (0)
N[C@@H](CO)C(=O)N[C@@H](CC(=O)O)C(=O)O (plate: PM8)	false (0)

Has CC(C)[C@H](NC(=O)[C@@H](N)CO)C(=O)O (plate: PM7) a recorded respiration area under curve greater than or equal to 9000?
false (0)

hey, is respiration area under curve for this one >= 9000? NC(N)=NCCC[C@H](N)C(=O)N[C@@H](Cc1ccccc1)C(=O)O (plate: PM6)
true (1)

I'd appreciate it if you could say whether NC(=O)CC[C@H](N)C(=O)N[C@@H](CCC(=O)O)C(=O)O (plate: PM8) has respiration area under curve at least equal to 9000.
true (1)

Does the molecule CC(C)C[C@H](NC(=O)[C@@H](N)Cc1c[nH]c2ccccc12)C(=O)O (plate: PM7) have recorded respiration area under curve that is 9000 or more?
false (0)

* * *

System: Pseudomonas aeruginosa PA14 wild type
test_summary: respiration area under curve with compound as sole nitrogen source, 24 h (OmniLog AUC (arbitrary units)); higher = more respiration / better utilisation as nitrogen source, active = 2000 or more
Lab note: assign the record to one of active, inactive

Here are 3 compounds together with their reported answers.
compound	system_name	classification
CC(C)[C@H](NC(=O)[C@@H](N)Cc1ccc(O)cc1)C(=O)O (plate: PM8)	Pseudomonas aeruginosa PA14 wild type	active
CC[C@H](C)[C@H](NC(=O)[C@@H](N)CC(C)C)C(=O)O (plate: PM6)	Pseudomonas aeruginosa PA14 wild type	active
CC(C)C[C@H](NC(=O)[C@@H](C)N)C(=O)O (plate: PM8)	Pseudomonas aeruginosa PA14 wild type	inactive

Which outcome was entered for the compound CC(C)[C@H](N)C(=O)N[C@@H](Cc1ccc(O)cc1)C(=O)N[C@H](C(=O)O)C(C)C (plate: PM8) in this test?
active

Entry N[C@@H](CO)C(=O)N[C@@H](CO)C(=O)O (plate: PM7) : call = ?
active

Which outcome was assigned to C[C@H](N)C(=O)N[C@H](C(=O)O)[C@@H](C)O (plate: PM6) in this test?
active

What call does the record list for C[C@H](N)C(=O)N[C@@H](CC(N)=O)C(=O)O (plate: PM6) ?
active

Assay result, entry CC(C)C[C@@H](N)C(=O)N[C@H](CC(C)C)C(=O)O (plate: PM8) — outcome?
inactive
